- assay_summary: Pharmacokinetic test in mice (low dose)
- Type: in vivo, Balb/c mice
- reported_conditions: mouse, plasma; mice, IV 2 mg/kg
readout_name: MRT (h)
State just the number; it will be interpreted in h.

I have this compound here, `CP(C)(=O)c1ccc(Nc2ccc(C(F)(F)F)cc2)c(-c2ccccn2)c1` , and I need its recorded MRT.
75

I have this compound here, `CP(C)(=O)c1ccc2c(c1)c1cccnc1n2-c1ccc(C(F)(F)F)cc1` , and I need its recorded MRT.
2.5

I have this compound here, `CP(C)(=O)c1ccc(Nc2ccc(C(F)(F)F)cc2)c(-c2ncccn2)c1` , and I need its recorded MRT.
23.4

I have this compound here, `CP(C)(=O)c1ccc2c(c1)c1ncccc1n2-c1ccc(C(F)(F)F)cc1` , and I need its recorded MRT.
6.4

---

- assay_summary: Pharmacokinetic test in mice (low dose)
- Type: in vivo, Balb/c mice
- reported_conditions: mouse, in vivo; mice, IV 2 mg/kg; read-out: Cl (converted)
readout_name: clearance (mL/min/kg)
State just the number; it will be interpreted in mL/min/kg.

I have this compound here, CP(C)(=O)c1ccc2c(c1)c1ccccc1n2-c1ccc(C(F)(F)F)cc1 [Example 1] , and I need its recorded clearance.
2.83

I have this compound here, Cn1cnc(-c2cc(P(C)(C)=O)ccc2Nc2ccc(C(F)(F)F)cc2)c1 [Example 14] , and I need its recorded clearance.
2.33

I have this compound here, CP(C)(=O)c1ccc2c(Oc3ccc(C(F)(F)F)cc3)cccc2c1 [Example 7] , and I need its recorded clearance.
0.25

I have this compound here, Cn1cnc(-c2cc(P(C)(C)=O)cnc2Nc2ccc(C(F)(F)F)cc2)c1 [Example 8] , and I need its recorded clearance.
10

I have this compound here, CP(C)(=O)c1cnc(Nc2ccc(C(F)(F)F)cc2)c(-c2cn3c(n2)CCC3)c1 [Example 22] , and I need its recorded clearance.
4.17

I have this compound here, Cn1cc2c3cc(P(C)(C)=O)ccc3n(-c3ccc(C(F)(F)F)cc3)c2n1 [Example 16] , and I need its recorded clearance.
13.3

I have this compound here, Cc1ccc(Oc2ccc(C(F)(F)F)cc2)c2ccc(P(C)(C)=O)cc12 [Example 24] , and I need its recorded clearance.
3.3

I have this compound here, CP(C)(=O)c1cnc(Oc2ccc(C(F)(F)F)cc2)c(-c2cn3c(n2)CCC3)c1 [Example 9] , and I need its recorded clearance.
13.3

---

Answer each item with its documented Cmax.
- assay_summary: Pharmacokinetic test in mice (low dose)
- Assay type: in vivo, Balb/c mice
- reported_conditions: Balb/c, mouse, in vivo, po, 10 mg/kg
- Method: The compounds of the present disclosure were administered to Balb/c mice by single intravenous injection and oral gavage, and the plasma of the mice at each time point was collected. The concentration of the compounds to be tested in BALB/C plasma was detected using the LC-MS/MS analysis method, and pharmacokinetic analysis was performed. […] The plasma concentration-time data were analyzed using a non-compartmental model in the Phoenix® WinNonlin® (Version 8.2, Pharsight, Mountain View, CA).
State just the number; it will be interpreted in nM.

I have this compound here, CC(C)NC(=O)c1ccc2c(Oc3ccc(C(F)(F)F)cc3)cccc2c1 [Comparative compound B1, reference compound] , and I need its recorded Cmax.
653

I have this compound here, CNS(=O)(=O)c1ccc2c(Oc3ccc(C(F)(F)F)cc3)cccc2c1 [Comparative compound B2, reference compound] , and I need its recorded Cmax.
4210
